System: P. aeruginosa AUMC-Pa-4
Measurement Description: microbe, parasite or virus in culture
Condition: strain AUMC-Pa-4; antibiotic alone; unit not given
This section presents molecules with their documented MICa: MIC of the antibiotic values.
Property: MICa: MIC of the antibiotic

| Molecule | Property | Val |
| --- | --- | --- |
| CC1(C)S[C@@H]2[C@H](NC(=O)C(C(=O)O)c3ccccc3)C(=O)N2[C@H]1C(=O)O (stereo partly drawn) | MICa: MIC of the antibiotic | 128 |
| CN(C)c1cc(NC(=O)CNC(C)(C)C)c(O)c2c1C[C@H]1C[C@H]3[C@H](N(C)C)C(O)=C(C(N)=O)C(=O)[C@@]3(O)C(O)=C1C2=O | MICa: MIC of the antibiotic | 8 |
| CN(C)[C@@H]1C(O)=C(C(N)=O)C(=O)[C@@]2(O)C(O)=C3C(=O)c4c(O)c(NC(=O)CN5CCCC5)cc(F)c4C[C@H]3C[C@@H]12 | MICa: MIC of the antibiotic | 16 |
